System: NCI-H322M (non-small cell lung cancer)
Experiment: NCI-60 SRB cytotoxicity screen
Format: cell-based
Settings: Homo sapiens, single dose 10 μM, read-out: growth inhibition (GI%)
Could you please report measured inhibition at 10 µM for the items listed next?

INSERT INTO measurements (molecule, result) VALUES
  ('CCc1cccc2cc(C=CC(=O)c3ccc(OC)c(OC)c3)c(Cl)nc12', '22.4%'),
  ('CCc1cccc2cc(-c3cc(-c4cc(OC)c(OC)c(OC)c4)[nH]c(=S)c3C#N)c(Cl)nc12', '34%'),
  ('CCc1cccc2cc(-c3cc(-c4ccc(F)cc4)[nH]c(=O)c3C#N)c(Cl)nc12', '< 10%');

Fill in inhibition at 10 µM for each of the 2 molecules listed.
1. CCc1cccc2cc(-c3cc(-c4ccc(Br)cc4)[nH]c(=O)c3C#N)c(Cl)nc12
2. CCc1cccc2cc(-c3cc(-c4ccc(OC)cc4)[nH]c(=S)c3C#N)c(Cl)nc12

Solution:
["< 10%", "17.6%"]

Each molecule below has a reported value. Please supply its inhibition at 10 µM.
1. CCc1cccc2cc(C3C=C(c4ccc(OC)c(OC)c4)NC(=S)N3)c(Cl)nc12 (centres unmarked)
2. CCc1cccc2cc(C=CC(=O)c3ccc(F)cc3)c(Cl)nc12
3. CCc1cccc2cc(-c3cc(-c4ccc(OC)cc4)[nH]c(=O)c3C#N)c(Cl)nc12

Solution:
1: < 10%; 2: < 10%; 3: < 10%

---

System: NCI-H226 (non-small cell lung cancer)
Assay: NCI-60 SRB cytotoxicity screen
Type: cell-based
Conditions: Homo sapiens; NCI-H226, single dose 10 μM; read-out: growth inhibition (GI%)
// false (0) strictly below 20% in inhibition at 10 µM; true (1) otherwise

INSERT INTO assay_data (compound, class_name) VALUES
  ('CCc1cccc2cc(-c3cc(-c4ccc(Br)cc4)[nH]c(=O)c3C#N)c(Cl)nc12 [Compound 4e]', 'false (0)');

Exercise: Decide: inhibition at 10 µM of CCc1cccc2cc(C3C=C(c4ccc(F)cc4)NC(=S)N3)c(Cl)nc12 (centres unmarked) [Compound 6d] >= 20%?
Solution: true (1)

Exercise: Is reported inhibition at 10 µM greater than or equal to 20% here: CCc1cccc2cc(C=CC(=O)c3ccc(Br)cc3)c(Cl)nc12 [Compound 3e]
Solution: false (0)

Exercise: Kindly determine if inhibition at 10 µM recorded for CCc1cccc2cc(-c3cc(-c4ccc(OC)cc4)[nH]c(=O)c3C#N)c(Cl)nc12 [Compound 4a] is above or exactly 20%.
Solution: false (0)

Exercise: Given the entry CCc1cccc2cc(-c3cc(-c4ccc(Br)cc4)[nH]c(=S)c3C#N)c(Cl)nc12 [Compound 5e] , answer whether its inhibition at 10 µM meets or surpasses 20%.
Solution: false (0)

Exercise: Identify whether the reported inhibition at 10 µM of the following compound is 20% or greater: CCc1cccc2cc(C3C=C(c4ccc(OC)c(OC)c4)NC(=S)N3)c(Cl)nc12 (centres unmarked) [Compound 6b]
Solution: false (0)

Exercise: Has CCc1cccc2cc(C=CC(=O)c3ccc(OC)c(OC)c3)c(Cl)nc12 [Compound 3b] a recorded inhibition at 10 µM greater than or equal to 20%?
Solution: true (1)

Exercise: Answer whether inhibition at 10 µM of CCc1cccc2cc(-c3cc(-c4ccc(OC)c(OC)c4)[nH]c(=O)c3C#N)c(Cl)nc12 [Compound 4b] is greater than or equal to 20%.
Solution: false (0)

Exercise: Has CCc1cccc2cc(-c3cc(-c4cc(OC)c(OC)c(OC)c4)[nH]c(=S)c3C#N)c(Cl)nc12 [Compound 5c] a recorded inhibition at 10 µM greater than or equal to 20%?
Solution: true (1)

Exercise: Check if inhibition at 10 µM >= 20% (inclusive). Item: CCc1cccc2cc(-c3cc(-c4ccc(F)cc4)[nH]c(=O)c3C#N)c(Cl)nc12 [Compound 4d]
Solution: false (0)

Exercise: Does CCc1cccc2cc(C3C=C(c4ccc(OC)cc4)NC(=S)N3)c(Cl)nc12 (centres unmarked) [Compound 6a] have a reported inhibition at 10 µM of at least 20%?
Solution: false (0)

Exercise: I'd appreciate it if you could say whether CCc1cccc2cc(C=CC(=O)c3cc(OC)c(OC)c(OC)c3)c(Cl)nc12 [Compound 3c] has inhibition at 10 µM at least equal to 20%.
Solution: true (1)

Exercise: Decide: inhibition at 10 µM of CCc1cccc2cc(C3C=C(c4ccc(Br)cc4)NC(=S)N3)c(Cl)nc12 (centres unmarked) [Compound 6e] >= 20%?
Solution: false (0)

Exercise: Dear colleague, could you confirm whether CCc1cccc2cc(-c3cc(-c4ccc(F)cc4)[nH]c(=S)c3C#N)c(Cl)nc12 [Compound 5d] has inhibition at 10 µM at or above 20%?
Solution: true (1)

Exercise: Is the recorded value of inhibition at 10 µM equal to or greater than 20% for this compound? CCc1cccc2cc(C=CC(=O)c3ccc(OC)cc3)c(Cl)nc12 [Compound 3a]
Solution: true (1)

Exercise: Quick check, inhibition at 10 µM >= 20%? CCc1cccc2cc(-c3cc(-c4ccc(OC)cc4)[nH]c(=S)c3C#N)c(Cl)nc12 [Compound 5a]
Solution: false (0)

Exercise: Item CCc1cccc2cc(C3C=C(c4cc(OC)c(OC)c(OC)c4)NC(=S)N3)c(Cl)nc12 (centres unmarked) [Compound 6c] with inhibition at 10 µM of 20% or above?
Solution: true (1)

Exercise: Decide: inhibition at 10 µM of CCc1cccc2cc(C=CC(=O)c3ccc(F)cc3)c(Cl)nc12 [Compound 3d] >= 20%?
Solution: false (0)

Exercise: Reported inhibition at 10 µM at or above 20%? CCc1cccc2cc(-c3cc(-c4cc(OC)c(OC)c(OC)c4)[nH]c(=O)c3C#N)c(Cl)nc12 [Compound 4c]
Solution: true (1)

---

System: MDA-MB-435 (melanoma)
Assay: NCI-60 SRB cytotoxicity screen;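 also: growth inhibition in percent at a single 10 µM dose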
Type: cell-based
Conditions: Homo sapiens, MDA-MB-435, read-out: growth inhibition (GI%)
READOUT_LABEL: inhibition at 10 µM

Some entries whose results are on file:
INSERT INTO measurements (smiles, readout_label, result) VALUES
  ('CCc1cccc2cc(-c3cc(-c4ccc(F)cc4)[nH]c(=S)c3C#N)c(Cl)nc12', 'inhibition at 10 µM', '< 10%'),
  ('CCc1cccc2cc(C=CC(=O)c3ccc(Br)cc3)c(Cl)nc12', 'inhibition at 10 µM', '< 10%');

Exercise: Which inhibition at 10 µM is reported for this compound? `CCc1cccc2cc(C=CC(=O)c3ccc(OC)cc3)c(Cl)nc12`
Solution: < 10%

---

Assign inhibition at 10 µM to each entry below.
Test system: CAKI-1 (renal cancer)
Experiment: NCI-60 SRB cytotoxicity screen
Format: cell-based
Conditions: Homo sapiens; CAKI-1, single dose 10 μM; read-out: growth inhibition (GI%)
Answers are plain numbers, in %.

Would you please look over these solved cases?
INSERT INTO measurements (compound, measured_target, measurement_units, recorded_number) VALUES
  ('CCc1cccc2cc(-c3cc(-c4ccc(Br)cc4)[nH]c(=S)c3C#N)c(Cl)nc12', 'CAKI-1 (renal cancer)', '%', 20.1),
  ('CCc1cccc2cc(C=CC(=O)c3ccc(F)cc3)c(Cl)nc12', 'CAKI-1 (renal cancer)', '%', 11.8),
  ('CCc1cccc2cc(C3C=C(c4cc(OC)c(OC)c(OC)c4)NC(=S)N3)c(Cl)nc12 (centres unmarked)', 'CAKI-1 (renal cancer)', '%', 64.1),
  ('CCc1cccc2cc(-c3cc(-c4ccc(OC)cc4)[nH]c(=O)c3C#N)c(Cl)nc12', 'CAKI-1 (renal cancer)', '%', 34.9),
  ('CCc1cccc2cc(C=CC(=O)c3ccc(Br)cc3)c(Cl)nc12', 'CAKI-1 (renal cancer)', '%', 12.8),
  ('CCc1cccc2cc(C3C=C(c4ccc(OC)c(OC)c4)NC(=S)N3)c(Cl)nc12 (centres unmarked)', 'CAKI-1 (renal cancer)', '%', 30.2),
  ('CCc1cccc2cc(C=CC(=O)c3ccc(OC)cc3)c(Cl)nc12', 'CAKI-1 (renal cancer)', '%', 19.3),
  ('CCc1cccc2cc(-c3cc(-c4cc(OC)c(OC)c(OC)c4)[nH]c(=O)c3C#N)c(Cl)nc12', 'CAKI-1 (renal cancer)', '%', 95.1);

Go through the items and report each one's inhibition at 10 µM.
1. CCc1cccc2cc(C3C=C(c4ccc(OC)cc4)NC(=S)N3)c(Cl)nc12 (centres unmarked)
2. CCc1cccc2cc(C3C=C(c4ccc(Br)cc4)NC(=S)N3)c(Cl)nc12 (centres unmarked)
3. CCc1cccc2cc(C=CC(=O)c3ccc(OC)c(OC)c3)c(Cl)nc12

Solution:
16.2
10.4
40.2

List inhibition at 10 µM for every entry below, keeping the order given.
1. CCc1cccc2cc(-c3cc(-c4ccc(F)cc4)[nH]c(=S)c3C#N)c(Cl)nc12
2. CCc1cccc2cc(-c3cc(-c4cc(OC)c(OC)c(OC)c4)[nH]c(=S)c3C#N)c(Cl)nc12
3. CCc1cccc2cc(-c3cc(-c4ccc(OC)c(OC)c4)[nH]c(=O)c3C#N)c(Cl)nc12

Solution:
31.1
69.8
39.2

Fill in inhibition at 10 µM for each of the 3 compounds listed.
1. CCc1cccc2cc(-c3cc(-c4ccc(Br)cc4)[nH]c(=O)c3C#N)c(Cl)nc12
2. CCc1cccc2cc(C3C=C(c4ccc(F)cc4)NC(=S)N3)c(Cl)nc12 (centres unmarked)
3. CCc1cccc2cc(-c3cc(-c4ccc(OC)c(OC)c4)[nH]c(=S)c3C#N)c(Cl)nc12

Solution:
1. 17.6
2. 26.1
3. 45.8
